substrate: CC(C)=CCC/C(C)=C/CC/C(C)=C/CO[P@@](=O)(O)OP(=O)(O)O; experiment: purified protein; assay type: biochemical, Coniophora puteana; settings: 25 °C, FPP 0-70 µM in methanol, 0.8–1.2 µM enzyme
Consider the following proteins and their measured kcat readings.
Report only the number, with the unit s⁻¹ understood.

Copu9 (Coniophora puteana RWD-64-598 SS2; T192N) (protein, full-length, codon-optimized, N-terminal hexa-His tag (pET-M11), expressed in E. coli BL21 RIL DE3; homodimer; 13 N-terminal residues not visible in crystal) MSPTATFTTTSSEENAPTKFILPDLVSDCTYPLLLNDNCEPVARASEQWLIAGARLQEPRRTKFMGLLAGELTAACYPHADASHLRVCVDFMNWLFNMDDWLDDFDVDDTWGMRHCCLGAFRDPVGFETDKLGGLMSKSFFSRFRQDGGPGCTERFIHTMDLFFIAVAQQAGDRANGITPDLESYITVRRDNSGCKPCFALIEYAAGIDLPDHVIYHPTLAAMEEATNDLVTWSNDIFSYNKEQVTDDTHNMIPVLMRERGLDLQGAVDFVGRLCKGTIERFETERARLPSWGPELDAQVQTYIEGLQNWIVGSLHWSFDSHRYFGKDGHAVKKHRIVKLLPKRVPQQA; 0.0396
Copu9 (Coniophora puteana RWD-64-598 SS2) (protein, full-length, codon-optimized, N-terminal hexa-His tag (pET-M11), expressed in E. coli BL21 RIL DE3; homodimer; 13 N-terminal residues not visible in crystal) MSPTATFTTTSSEENAPTKFILPDLVSDCTYPLLLNDNCEPVARASEQWLIAGARLQEPRRTKFMGLLAGELTAACYPHADASHLRVCVDFMNWLFNMDDWLDDFDVDDTWGMRHCCLGAFRDPVGFETDKLGGLMSKSFFSRFRQDGGPGCTERFIHTMDLFFIAVAQQAGDRANGITPDLESYITVRRDTSGCKPCFALIEYAAGIDLPDHVIYHPTLAAMEEATNDLVTWSNDIFSYNKEQVTDDTHNMIPVLMRERGLDLQGAVDFVGRLCKGTIERFETERARLPSWGPELDAQVQTYIEGLQNWIVGSLHWSFDSHRYFGKDGHAVKKHRIVKLLPKRVPQQA; 0.0324
Copu9 (Coniophora puteana RWD-64-598 SS2; S314N) (protein, full-length, codon-optimized, N-terminal hexa-His tag (pET-M11), expressed in E. coli BL21 RIL DE3; homodimer; 13 N-terminal residues not visible in crystal) MSPTATFTTTSSEENAPTKFILPDLVSDCTYPLLLNDNCEPVARASEQWLIAGARLQEPRRTKFMGLLAGELTAACYPHADASHLRVCVDFMNWLFNMDDWLDDFDVDDTWGMRHCCLGAFRDPVGFETDKLGGLMSKSFFSRFRQDGGPGCTERFIHTMDLFFIAVAQQAGDRANGITPDLESYITVRRDTSGCKPCFALIEYAAGIDLPDHVIYHPTLAAMEEATNDLVTWSNDIFSYNKEQVTDDTHNMIPVLMRERGLDLQGAVDFVGRLCKGTIERFETERARLPSWGPELDAQVQTYIEGLQNWIVGNLHWSFDSHRYFGKDGHAVKKHRIVKLLPKRVPQQA; 0.0192
Copu9 (Coniophora puteana RWD-64-598 SS2; T73C) (protein, full-length, codon-optimized, N-terminal hexa-His tag (pET-M11), expressed in E. coli BL21 RIL DE3; homodimer; 13 N-terminal residues not visible in crystal) MSPTATFTTTSSEENAPTKFILPDLVSDCTYPLLLNDNCEPVARASEQWLIAGARLQEPRRTKFMGLLAGELCAACYPHADASHLRVCVDFMNWLFNMDDWLDDFDVDDTWGMRHCCLGAFRDPVGFETDKLGGLMSKSFFSRFRQDGGPGCTERFIHTMDLFFIAVAQQAGDRANGITPDLESYITVRRDTSGCKPCFALIEYAAGIDLPDHVIYHPTLAAMEEATNDLVTWSNDIFSYNKEQVTDDTHNMIPVLMRERGLDLQGAVDFVGRLCKGTIERFETERARLPSWGPELDAQVQTYIEGLQNWIVGSLHWSFDSHRYFGKDGHAVKKHRIVKLLPKRVPQQA; 0.0502

Okay, next one:
Query block: Item Copu9 (Coniophora puteana RWD-64-598 SS2; G194A) (protein, full-length, codon-optimized, N-terminal hexa-His tag (pET-M11), expressed in E. coli BL21 RIL DE3; homodimer; 13 N-terminal residues not visible in crystal) MSPTATFTTTSSEENAPTKFILPDLVSDCTYPLLLNDNCEPVARASEQWLIAGARLQEPRRTKFMGLLAGELTAACYPHADASHLRVCVDFMNWLFNMDDWLDDFDVDDTWGMRHCCLGAFRDPVGFETDKLGGLMSKSFFSRFRQDGGPGCTERFIHTMDLFFIAVAQQAGDRANGITPDLESYITVRRDTSACKPCFALIEYAAGIDLPDHVIYHPTLAAMEEATNDLVTWSNDIFSYNKEQVTDDTHNMIPVLMRERGLDLQGAVDFVGRLCKGTIERFETERARLPSWGPELDAQVQTYIEGLQNWIVGSLHWSFDSHRYFGKDGHAVKKHRIVKLLPKRVPQQA : provide kcat
Result block: 0.036
